Tested on: MCF-7 breast cancer cells
Test: Cancer cell line proliferation, breast
Format: cell-based
Design: dose or concentration left out as unconfirmed
Conditions: Homo sapiens, MCF7
Assignment: determine reported inhibition for the given molecules.
All answers are understood in %, so give the number only.

Entry CCc1ccc2c(c1)c(=O)oc1cc(OCc3ccc(OC)cc3)c(OC)cc12 [Palomid 550] , inhibition reported as 28

Entry COc1cc2c(cc1OCc1ccccc1)oc(=O)c1cc(C(C)O)ccc12 (centres unmarked) [Palomid 393] , inhibition reported as 11

Entry COc1ccccc1COc1cc2oc(=O)c3cc(C(C)O)ccc3c2cc1OC (centres unmarked) [Palomid 545] , inhibition reported as 17

Entry CCc1ccc2c(c1)c(=O)oc1cc(OCc3ccccc3OC)c(OC)cc12 [Palomid 551] , inhibition reported as 25

----------
System: HUVEC quiescent
Assay: Non-proliferating (quiescent) HUVEC assay
Assay type: cell-based
Design: dose or concentration left out as unconfirmed
Conditions: Homo sapiens, 48 h, read-out: HUVECq % inhibition
Metric name: inhibition

Entry CCc1ccc2c(c1)c(=O)oc1cc(OCc3ccc(OC)cc3)c(OC)cc12 [Palomid 550] , inhibition reported as 14%

Entry COc1cc2c(cc1OCCc1ccccc1)oc(=O)c1cc(C(C)=O)ccc12 [Palomid 568] , inhibition reported as 14%

Entry COc1cc2c(cc1OCc1ccccc1)oc(=O)c1cc(C(C)O)ccc12 (stereo not drawn) [Palomid 393] , inhibition reported as 21%

----------
System: MCF-7 breast cancer cells
Experiment: Cancer cell line proliferation, breast
Format: cell-based
Parameters: dose or concentration left out as unconfirmed
Details: Homo sapiens, MCF7
Param threshold (30%) applies to inhibition; output true (1) when value >= threshold, false (0) when value < threshold.

Ask | State whether the measured inhibition reaches 30%, counting equality as reaching it, for COc1cc(COc2cc3oc(=O)c4cc(C(C)=O)ccc4c3cc2OC)cc(OC)c1 [Palomid 546]
Reply | false (0)

Ask | State whether the measured inhibition reaches 30%, counting equality as reaching it, for COc1cc(COc2cc3oc(=O)c4cc(C(C)O)ccc4c3cc2OC)cc(OC)c1 (centres unmarked) [Palomid 547]
Reply | true (1)

Ask | State whether the measured inhibition reaches 30%, counting equality as reaching it, for COc1ccc(COc2cc3oc(=O)c4cc(C(C)O)ccc4c3cc2OC)cc1 (centres unmarked) [Palomid 529]
Reply | true (1)

Ask | State whether the measured inhibition reaches 30%, counting equality as reaching it, for COc1cc2c(cc1OCc1ccc(C)cc1)oc(=O)c1cc(C(C)=O)ccc12 [Palomid 559]
Reply | false (0)

Ask | State whether the measured inhibition reaches 30%, counting equality as reaching it, for COc1cc2c(cc1OCc1ccc(C)cc1)oc(=O)c1cc(C(C)O)ccc12 (centres unmarked) [Palomid 575]
Reply | true (1)

----------
System: HUVEC quiescent
Experiment: Non-proliferating (quiescent) HUVEC assay
Format: cell-based
Set-up: dose or concentration left out as unconfirmed
Conditions: Homo sapiens, 48 h, read-out: HUVECq % inhibition
Param threshold (30%) applies to inhibition; output yes (1) when value >= threshold, no (0) when value < threshold.

Ask | State whether the measured inhibition reaches 30%, counting equality as reaching it, for CCc1ccc2c(c1)c(=O)oc1cc(OCc3ccc(C(=O)OC)cc3)c(OC)cc12
Reply | no (0)

Ask | State whether the measured inhibition reaches 30%, counting equality as reaching it, for COc1cc2c(cc1OCc1ccc(C)cc1)oc(=O)c1cc(C(C)=O)ccc12
Reply | yes (1)

Ask | State whether the measured inhibition reaches 30%, counting equality as reaching it, for COc1ccc(COc2cc3oc(=O)c4cc(C(C)O)ccc4c3cc2OC)cc1 (centres unmarked)
Reply | yes (1)

Ask | State whether the measured inhibition reaches 30%, counting equality as reaching it, for COc1ccccc1COc1cc2oc(=O)c3cc(C(C)O)ccc3c2cc1OC (centres unmarked)
Reply | no (0)

Ask | State whether the measured inhibition reaches 30%, counting equality as reaching it, for COc1cc(COc2cc3oc(=O)c4cc(C(C)O)ccc4c3cc2OC)cc(OC)c1 (centres unmarked)
Reply | no (0)

Ask | State whether the measured inhibition reaches 30%, counting equality as reaching it, for COc1cc(COc2cc3oc(=O)c4cc(C(C)=O)ccc4c3cc2OC)cc(OC)c1
Reply | no (0)

Ask | State whether the measured inhibition reaches 30%, counting equality as reaching it, for COc1cc2c(cc1OCc1ccc(C)cc1)oc(=O)c1cc(C(C)O)ccc12 (centres unmarked)
Reply | yes (1)

Ask | State whether the measured inhibition reaches 30%, counting equality as reaching it, for CCc1ccc2c(c1)c(=O)oc1cc(OCc3ccc(C(=O)c4ccccc4)cc3)c(OC)cc12
Reply | no (0)
